Entry source: patent US20200115416A1

molecular target: mouse melanocortin-5 receptor (mouse, UniProt P41149 1-325); experiment: cell-based or functional assay
Sequence (P41149 whole entry): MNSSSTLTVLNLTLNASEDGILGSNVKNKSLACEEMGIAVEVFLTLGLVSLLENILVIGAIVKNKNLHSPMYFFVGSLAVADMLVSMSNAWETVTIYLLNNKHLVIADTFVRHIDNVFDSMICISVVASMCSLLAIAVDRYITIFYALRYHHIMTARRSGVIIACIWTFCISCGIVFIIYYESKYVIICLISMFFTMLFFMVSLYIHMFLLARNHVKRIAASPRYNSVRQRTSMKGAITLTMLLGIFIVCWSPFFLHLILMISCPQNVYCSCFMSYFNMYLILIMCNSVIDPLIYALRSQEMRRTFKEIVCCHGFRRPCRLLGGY
Square brackets hold non-standard residues; d marks the D form.
inverse agonist, % decrease from basal cAMP: recorded values
readout name: inverse agonist, % decrease from basal cAMP (%)

binder="PRFFXAFP (head-to-tail cyclic; Abu at 5; DPro at 8) [c[Pro-Arg-Phe-Phe-Abu-Ala-Phe-DPro]]" value_reported=-20
binder="cyclo(PRFFSAF[dP]) [c[Pro-Arg-Phe-Phe-Ser-Ala-Phe-DPro]]" value_reported=-25
binder="cyclo(PRFFTAF[dP]) (SMILES C[C@@H]1NC(=O)[C@H]([C@@H](C)O)NC(=O)[C@H](Cc2ccccc2)NC(=O)[C@H](Cc2ccccc2)NC(=O)[C@H](CCCNC(=N)N)NC(=O)[C@@H]2CCCN2C(=O)[C@H]2CCCN2C(=O)[C@H](Cc2ccccc2)NC1=O) [c[Pro-Arg-Phe-Phe-Thr-Ala-Phe-DPro]]" value_reported=-20
binder="cyclo(PRFFWAF[dP]) (SMILES C[C@@H]1NC(=O)[C@H](Cc2c[nH]c3ccccc23)NC(=O)[C@H](Cc2ccccc2)NC(=O)[C@H](Cc2ccccc2)NC(=O)[C@H](CCCNC(=N)N)NC(=O)[C@@H]2CCCN2C(=O)[C@H]2CCCN2C(=O)[C@H](Cc2ccccc2)NC1=O) [c[Pro-Arg-Phe-Phe-Trp-Ala-Phe-DPro]]" value_reported=-20
binder="cyclo(PRFFHAF[dP]) (SMILES C[C@@H]1NC(=O)[C@H](Cc2c[nH]cn2)NC(=O)[C@H](Cc2ccccc2)NC(=O)[C@H](Cc2ccccc2)NC(=O)[C@H](CCCNC(=N)N)NC(=O)[C@@H]2CCCN2C(=O)[C@H]2CCCN2C(=O)[C@H](Cc2ccccc2)NC1=O) [c[Pro-Arg-Phe-Phe-His-Ala-Phe-DPro]]" value_reported=-15
binder="cyclo(PRFFLAF[dP]) (SMILES CC(C)C[C@@H]1NC(=O)[C@H](Cc2ccccc2)NC(=O)[C@H](Cc2ccccc2)NC(=O)[C@H](CCCNC(=N)N)NC(=O)[C@@H]2CCCN2C(=O)[C@H]2CCCN2C(=O)[C@H](Cc2ccccc2)NC(=O)[C@H](C)NC1=O) [c[Pro-Arg-Phe-Phe-Leu-Ala-Phe-DPro]]" value_reported=-20
